These measurements were taken from ChEMBL document CHEMBL6078692.

- protocolSummary: Unbound clearance in mouse at 15 mg/kg, po or 1 mg/kg, iv
- Assay type: ADME, organism-based
- protocolConditions: in vivo
reportedEndpoint: CL free
Hey, just the number and the unit after it is fine.

Summary for this compound, CC[C@@H](N)c1nc(N2CCC[C@H]2C)cc2c1CN(c1cccc(-c3nnc4n3[C@@H](C)CC4)n1)C2=O : CL free is 690 mL/min/kg

* * *

- protocolSummary: Kinetic solubility of compound at pH 7.4 incubated for 24 hrs by MS/MS analysis
- Type: physicochemical
- protocolConditions: buffer, read-out: Kinetic_solubility
reportedEndpoint: solubility kinetic at 24 h (µM)
Output spec: scalar in µM, unitless text.

Worked examples, 3 compounds total:
- CNCc1cc(OC)cc2c1CN(c1cccc(-c3nncn3[C@@H](C)CC(F)(F)F)n1)C2=O: 202
- CNCc1cc(OC)cc2c1CN(c1cccc(-c3nncn3C(C)C)n1)C2=O: 495
- CC[C@@H](N)c1nc(N2CCC[C@H]2C)cc2c1CN(c1cccc(-c3nnc4n3[C@@H](C)CC4)n1)C2=O: 260

Summary for this compound, COc1ccc2c(c1CN)CN(c1cccc(-c3nncn3[C@@H](C)CC(F)(F)F)n1)C2=O : solubility kinetic at 24 h is 372

* * *

- protocolSummary: Clearance in mouse at 15 mg/kg, po or 1 mg/kg, iv
- Format: ADME, organism-based
- protocolConditions: in vivo
reportedEndpoint: clearance (mL/min/kg)
Output spec: scalar in mL/min/kg, unitless text.

Summary for this compound, CC[C@@H](N)c1nc(N2CCC[C@H]2C)cc2c1CN(c1cccc(-c3nnc4n3[C@@H](C)CC4)n1)C2=O : clearance is 39

* * *

Listed here are compounds together with their documented IC50 at 3 days.
- protocolSummary: Cytotoxicity against PBMC (unknown origin) assessed as inhibition of ATP level incubated for 3 days by Cell Titer Glo assay
- Format: toxicity, cell-based
Hey, just the number and the unit after it is fine.

Worked examples, 3 compounds total:
• C[C@@H]1CCCN1c1cc2c(c([C@@H](C)N)n1)CN(c1cccc(-c3nnc4n3[C@@H](C)CC4)n1)C2=O = 1.1 µM
• CC[C@H]1CCc2nnc(-c3cccc(N4Cc5c(cc(N(C)C(C)C)nc5CNC)C4=O)n3)n21 = 0.5 µM
• CCCn1cnnc1-c1cccc(N2Cc3c(cc(N(C)C(C)C)nc3CNC)C2=O)n1 = 2.1 µM

Next up:
Summary for this compound, CC[C@@H](N)c1nc(N2CCC[C@H]2C)cc2c1CN(c1cccc(-c3nncn3CC)n1)C2=O : IC50 at 3 days is 2.2 µM

* * *

- protocolSummary: Selectivity ratio of IC50 for cytotoxicity against PBMC (unknown origin) assessed as inhibition of ATP level incubated for 3 days by Cell Titer Glo assay to IC50 for inhibition of SLP76 phosphorylation at Ser376 in human Jurkat cells incubated for 30 mins by HTRF assay
- Format: toxicity, cell-based
- protocolConditions: read-out: Ratio IC50
Listed here are molecules together with their documented selectivity ratio at 3 days.
Answer using only a numeral; do not append any unit.

Worked examples, 3 molecules total:
- CNCc1cc(OC)cc2c1CN(c1cccc(-c3nncn3[C@@H](C)CC(F)(F)F)n1)C2=O: 4
- CCCn1cnnc1-c1cccc(N2Cc3c(cc(N(C)C(C)C)nc3CNC)C2=O)n1: 24
- CC[C@@H](N)c1nc(N2CCC[C@H]2C)cc2c1CN(c1cccc(-c3nncn3CC)n1)C2=O: 42

Next up:
Summary for this molecule, CC[C@H]1CCc2nnc(-c3cccc(N4Cc5c(cc(N(C)C(C)C)nc5CNC)C4=O)n3)n21 : selectivity ratio at 3 days is 13

* * *

- protocolSummary: Selectivity ratio of IC50 for cytotoxicity against PBMC (unknown origin) assessed as inhibition of ATP level incubated for 3 days by Cell Titer Glo assay to IC50 for inhibition of SLP76 phosphorylation at Ser376 in human Jurkat cells incubated for 30 mins by HTRF assay
- Format: toxicity, cell-based
- protocolConditions: read-out: Ratio IC50
reportedEndpoint: selectivity ratio at 3 days
Answer using only a numeral; do not append any unit.

* C[C@@H]1CCCN1c1cc2c(c([C@@H](C)N)n1)CN(c1cccc(-c3nnc4n3[C@@H](C)CC4)n1)C2=O | 21
* CCCn1cnnc1-c1cccc(N2Cc3c(cc(N4CCC[C@H]4C)nc3CNC)C2=O)n1 | 32
* CNCc1cc(OC)cc2c1CN(c1cccc(-c3nncn3C(C)C)n1)C2=O | 5
* CNCc1nc(N(C)C(C)C)cc2c1CN(c1cccc(-c3nnc4n3[C@@H](C)CC4)n1)C2=O | 11

Summary for this compound, CNCc1nc(N(C)C(C)C)cc2c1CN(c1cccc(-c3nnc4n3[C@@H](CF)CC4)n1)C2=O : selectivity ratio at 3 days is 25

Summary for this compound, CCCn1cnnc1-c1cccc(N2Cc3c(cc(N(C)C)nc3CNC)C2=O)n1 : selectivity ratio at 3 days is 29

* * *

- protocolSummary: Clearance in monkey at 1 mg/kg, po or 0.5 mg/kg, iv
- Format: ADME, organism-based, Macaca mulatta
- protocolConditions: rhesus monkey, in vivo
reportedEndpoint: clearance (mL/min/kg)
Output spec: scalar in mL/min/kg, unitless text.

Summary for this compound, CC[C@@H](N)c1nc(N2CCC[C@H]2C)cc2c1CN(c1cccc(-c3nnc4n3[C@@H](C)CC4)n1)C2=O : clearance is 14

* * *

- protocolSummary: Permeability in RRCK cells
- Format: ADME, cell-based, Canis lupus familiaris, MDCKII-LE
- protocolConditions: dog, MDCK; read-out: permeability
Listed here are compounds together with their documented Papp.
Output spec: scalar in ×10⁻⁶ cm/s, unitless text.

Worked examples, 6 compounds total:
* COc1ccc2c(c1CN)CN(c1cccc(-c3nncn3[C@@H](C)CC(F)(F)F)n1)C2=O | 2.9
* CNCc1cc(OC)cc2c1CN(c1cccc(-c3nncn3[C@@H](C)CC(F)(F)F)n1)C2=O | 20.4
* CCCn1cnnc1-c1cccc(N2Cc3c(cc(N4CCC[C@H]4C)nc3CNC)C2=O)n1 | 15.1
* CCCn1cnnc1-c1cccc(N2Cc3c(cc(N(C)C)nc3CNC)C2=O)n1 | 17.7
* CCCn1cnnc1-c1cccc(N2Cc3c(cc(N(C)C(C)C)nc3CNC)C2=O)n1 | 19.3
* CC[C@@H](N)c1nc(N2CCC[C@H]2C)cc2c1CN(c1cccc(-c3nnc4n3[C@@H](C)CC4)n1)C2=O | 8.3

Next up:
Summary for this compound, CNCc1cc(OC)cc2c1CN(c1cccc(-c3nncn3C(C)C)n1)C2=O : Papp is 27

* * *

- testTarget: Mitogen-activated protein kinase kinase kinase kinase 1 (Homo sapiens, UniProt Q92918)
- Sequence (Q92918 whole entry, the tested form may be a part): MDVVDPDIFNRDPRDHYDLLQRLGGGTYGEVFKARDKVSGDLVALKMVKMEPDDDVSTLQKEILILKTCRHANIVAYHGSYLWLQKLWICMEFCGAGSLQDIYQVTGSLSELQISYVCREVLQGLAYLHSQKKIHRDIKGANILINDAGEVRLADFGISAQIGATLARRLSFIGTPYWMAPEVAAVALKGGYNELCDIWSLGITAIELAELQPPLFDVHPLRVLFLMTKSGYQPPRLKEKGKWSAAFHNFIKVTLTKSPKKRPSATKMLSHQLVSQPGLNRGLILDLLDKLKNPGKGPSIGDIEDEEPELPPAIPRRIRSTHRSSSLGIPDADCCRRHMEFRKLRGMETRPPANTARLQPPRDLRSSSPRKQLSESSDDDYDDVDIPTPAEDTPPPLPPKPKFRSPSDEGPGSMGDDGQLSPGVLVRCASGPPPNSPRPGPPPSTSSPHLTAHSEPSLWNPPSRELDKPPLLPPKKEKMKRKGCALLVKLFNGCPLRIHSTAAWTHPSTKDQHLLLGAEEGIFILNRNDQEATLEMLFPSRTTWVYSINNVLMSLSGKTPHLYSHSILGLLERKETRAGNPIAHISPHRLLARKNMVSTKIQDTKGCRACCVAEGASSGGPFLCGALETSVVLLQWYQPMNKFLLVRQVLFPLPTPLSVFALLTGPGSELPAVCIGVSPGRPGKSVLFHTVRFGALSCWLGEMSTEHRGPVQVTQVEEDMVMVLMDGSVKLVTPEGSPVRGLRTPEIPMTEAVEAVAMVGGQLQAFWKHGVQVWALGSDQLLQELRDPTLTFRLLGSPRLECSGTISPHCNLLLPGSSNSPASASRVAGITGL
- protocolSummary: Inhibition of full-length recombinant human HPK1 (1 to 182 residues) extracted from baculovirus infected Sf21 cells using phospho-acceptor peptide as substrate incubated for 15 mins in presence of ATP by fluorescence based assay
reportedEndpoint: IC50 (nM)
Output spec: scalar in nM, unitless text.

* CNCc1cc(OC)cc2c1CN(c1cccc(-c3nncn3[C@@H](C)CC(F)(F)F)n1)C2=O | 0.3
* COc1ccc2c(c1CN)CN(c1cccc(-c3nncn3[C@@H](C)CC(F)(F)F)n1)C2=O | 2.5
* CCCn1cnnc1-c1cccc(N2Cc3c(cc(N(C)C)nc3CNC)C2=O)n1 | 0.27
* CC[C@H](C)n1cnnc1-c1cccc(NC(=O)c2cccc3c2nc(CN)n3C)n1 | 2.7
* CCC(C)n1cnnc1-c1cccc(NC(=O)c2cccc3c2OCC(N)C3)n1 (configuration not stated) | 2.2

Summary for this molecule, CC(C)n1cnnc1-c1cccc(N2Cc3c(CO)cccc3C2=O)n1 : IC50 is 22

Summary for this molecule, CC(C)n1cnnc1-c1cccc(NC(=O)c2cccc3c2nc(CN)n3C)n1 : IC50 is 10

* * *

- protocolSummary: Oral bioavailability in mouse at 15 mg/kg, po
- Format: ADME, organism-based
- protocolConditions: in vivo
reportedEndpoint: bioavailability (%)
Output spec: scalar in %, unitless text.

Summary for this compound, CC[C@@H](N)c1nc(N2CCC[C@H]2C)cc2c1CN(c1cccc(-c3nnc4n3[C@@H](C)CC4)n1)C2=O : bioavailability is 38

* * *

- protocolSummary: Intrinsic clearance in human hepatocytes measured per million cells at 1 uM measured for 240 mins by LC-MS/MS analysis
- Type: ADME, cell-based, Hepatocyte
- protocolConditions: read-out: CLH
reportedEndpoint: hepatocyte CLint at 1 µM (µL/min/1e6 cells)
Output spec: scalar in µL/min/1e6 cells, unitless text.

* CCCn1cnnc1-c1cccc(N2Cc3c(cc(N(C)C)nc3CNC)C2=O)n1 | 5.2

Summary for this molecule, CC[C@@H](N)c1nc(N2CCC[C@H]2C)cc2c1CN(c1cccc(-c3nnc4n3[C@@H](C)CC4)n1)C2=O : hepatocyte CLint at 1 µM is 56

Summary for this molecule, CCCn1cnnc1-c1cccc(N2Cc3c(cc(N(C)C(C)C)nc3CNC)C2=O)n1 : hepatocyte CLint at 1 µM is 15

Summary for this molecule, CNCc1cc(OC)cc2c1CN(c1cccc(-c3nncn3C(C)C)n1)C2=O : hepatocyte CLint at 1 µM is 10

Summary for this molecule, CCCn1cnnc1-c1cccc(N2Cc3c(cc(N4CCC[C@H]4C)nc3CNC)C2=O)n1 : hepatocyte CLint at 1 µM is 23

Summary for this molecule, CNCc1cc(OC)cc2c1CN(c1cccc(-c3nncn3[C@@H](C)CC(F)(F)F)n1)C2=O : hepatocyte CLint at 1 µM is 11
